Target entity: Gal3S(b1-3)[Fuc(a1-4)]GlcNAc
Assay overview: glycan array binding signal (z-score within array); higher = stronger binding
Study conditions: glycan notation: IUPAC condensed, linker removed
The full list was thinned out, with the strongest signals kept by preference.
Decision: glycan array binding signal (z-score) compared against -0.3; not below it gives MET, below it gives NOT MET.

Solved cases below.
[[record]]
binder = "XCL (Xerocomus chrysenteron) (protein) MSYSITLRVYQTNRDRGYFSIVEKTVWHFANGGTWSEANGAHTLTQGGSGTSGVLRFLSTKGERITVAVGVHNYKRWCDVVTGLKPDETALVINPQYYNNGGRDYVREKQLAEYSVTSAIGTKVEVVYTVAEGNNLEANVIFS"
label = "NOT MET"

[[record]]
binder = "rMpL (Macrolepiota procera) (protein) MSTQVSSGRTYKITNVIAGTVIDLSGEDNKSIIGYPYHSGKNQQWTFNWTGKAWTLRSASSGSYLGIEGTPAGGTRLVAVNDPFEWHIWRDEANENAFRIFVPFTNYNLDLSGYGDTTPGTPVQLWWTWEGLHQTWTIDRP"
label = "MET"

[[record]]
binder = "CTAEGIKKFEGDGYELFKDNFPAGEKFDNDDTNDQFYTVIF [MUB40 (Lactobacillus reuteri)]"
label = "MET"

[[record]]
binder = "Dectin-1 CTLD (Mus musculus), Q6QLQ4 (protein) MKYHSHIENLDEDGYTQLDFSTQDIHKRPRGSEKGSRAPSSPWRPIAVGLGILCFVVVVVAAVLGALAFWRHNSGRNPEEKDNFLSRNKENHKPTESSLDEKVAPSKASQTTGGFSQSCLPNWIMHGKSCYLFSFSGNSWYGSKRHCSQLGAHLLKIDNSKEFEFIESQTSSHRINAFWIGLSRNQSEGPWFWEDGSAFFPNSFQVRNTVPQESLLHNCVWIHGSEVYNQICNTSSYSICEKEL"
label = "NOT MET"

[[record]]
binder = "Gal 8 (Homo sapiens), O00214 (protein) MMLSLNNLQNIIYNPVIPFVGTIPDQLDPGTLIVIRGHVPSDADRFQVDLQNGSSMKPRADVAFHFNPRFKRAGCIVCNTLINEKWGREEITYDTPFKREKSFEIVIMVKDKFQVAVNGKHTLLYGHRIGPEKIDTLGIYGKVNIHSIGFSFSSDLQSTQASSLELTEISRENVPKSGTPQLPSNRGGDISKIAPRTVYTKSKDSTVNHTLTCTKIPPMNYVSKRLPFAARLNTPMGPGRTVVVKGEVNANAKSFNVDLLAGKSKDIALHLNPRLNIKAFVRNSFLQESWGEEERNITSFPFSPGMYFEMIIYCDVREFKVAVNGVHSLEYKHRFKELSSIDTLEINGDIHLLEVRSW"
label = "NOT MET"


# bool: glycan array binding signal (z-score) of RsaA-N-term (Caulobacter crescentus), P35828 (protein) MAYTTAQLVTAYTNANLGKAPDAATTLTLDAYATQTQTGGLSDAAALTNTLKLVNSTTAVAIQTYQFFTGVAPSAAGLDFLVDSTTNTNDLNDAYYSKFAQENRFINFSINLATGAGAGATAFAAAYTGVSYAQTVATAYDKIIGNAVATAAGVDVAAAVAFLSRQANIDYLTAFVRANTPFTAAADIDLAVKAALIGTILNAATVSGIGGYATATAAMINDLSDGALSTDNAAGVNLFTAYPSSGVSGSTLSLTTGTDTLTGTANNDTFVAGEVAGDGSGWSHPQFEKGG >= -0.3
NOT MET

# bool: glycan array binding signal (z-score) of CFEM-PPm (Pichia pastoris), F2QPV1 (protein) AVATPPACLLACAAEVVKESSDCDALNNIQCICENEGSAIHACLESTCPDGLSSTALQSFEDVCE >= -0.3
MET

# bool: glycan array binding signal (z-score) of MRCL (Homo sapiens), NP_872425.1 (protein) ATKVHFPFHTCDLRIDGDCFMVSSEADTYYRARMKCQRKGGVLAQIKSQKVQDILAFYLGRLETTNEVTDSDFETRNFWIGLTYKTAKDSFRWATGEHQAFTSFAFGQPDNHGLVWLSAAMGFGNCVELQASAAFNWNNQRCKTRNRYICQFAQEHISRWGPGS >= -0.3
MET

# bool: glycan array binding signal (z-score) of PpFlo3 (Pichia pastoris) (protein) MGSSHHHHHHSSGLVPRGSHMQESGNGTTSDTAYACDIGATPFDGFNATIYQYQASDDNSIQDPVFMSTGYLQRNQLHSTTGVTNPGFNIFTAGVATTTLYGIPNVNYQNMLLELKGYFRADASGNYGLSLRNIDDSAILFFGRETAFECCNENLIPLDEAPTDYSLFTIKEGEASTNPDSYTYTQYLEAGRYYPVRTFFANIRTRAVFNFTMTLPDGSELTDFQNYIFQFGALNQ >= -0.3
MET

# bool: glycan array binding signal (z-score) of PpFlo2 (Pichia pastoris) (protein) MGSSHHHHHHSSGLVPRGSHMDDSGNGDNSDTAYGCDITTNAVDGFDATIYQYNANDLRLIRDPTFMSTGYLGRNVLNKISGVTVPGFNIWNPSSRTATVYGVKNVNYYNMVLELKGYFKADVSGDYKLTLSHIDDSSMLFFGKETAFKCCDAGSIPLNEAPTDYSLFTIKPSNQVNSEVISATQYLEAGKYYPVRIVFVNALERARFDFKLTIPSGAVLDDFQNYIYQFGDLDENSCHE >= -0.3
MET

# bool: glycan array binding signal (z-score) of CCL1 (Coprinopsis cinerea) (protein) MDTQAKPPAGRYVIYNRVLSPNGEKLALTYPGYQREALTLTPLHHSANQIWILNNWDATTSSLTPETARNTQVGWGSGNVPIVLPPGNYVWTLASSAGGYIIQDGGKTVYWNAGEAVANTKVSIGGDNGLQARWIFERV >= -0.3
MET

# bool: glycan array binding signal (z-score) of EULS2 M1 (Oryza sativa) (protein) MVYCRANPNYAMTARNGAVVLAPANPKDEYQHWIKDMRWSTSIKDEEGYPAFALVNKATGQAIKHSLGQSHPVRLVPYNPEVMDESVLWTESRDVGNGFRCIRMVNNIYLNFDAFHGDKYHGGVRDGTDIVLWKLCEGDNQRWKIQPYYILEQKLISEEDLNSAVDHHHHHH >= -0.3
NOT MET
